Quick reference: growth of the listed items.
- Tested on: OVCAR-4 ovarian
- Assay procedure: NCI-60 one-dose screen, 48 h (100 = growth as untreated, 0 = no growth, -100 = all killed)
- Cond: 10 µM unless noted
About 83,000 compounds went through this panel and 20% of them were active in at least one assay; those are over-represented in the sample as a whole.
Express it in %; write the number only.

The examples below pair each entry with its known result.
| Compound | growth (%) |
| --- | --- |
| Cc1ccc(C2CC(c3cccs3)=NN2c2ccc(S(N)(=O)=O)cc2)s1 (centres undefined) | 110 |
| Cc1c(O)c(=O)n(-c2ccccc2)n1C | 111 |

State its growth for this compound: `CC(C)[C@H](CN)NC[C@H](C)NS(=O)(=O)c1ccc(C(C)(C)C)cc1` 87.5

State its growth for this compound: `C#CC[C@@H]1C[C@]2(C)[C@H]3CC=C4[C@H]5[C@@H](C)[C@H](C)CC[C@]5(C(=O)NCCCCCCCCN)CC[C@@]4(C)[C@]3(C)CC[C@H]2C(C)(C)[C@H]1OC(C)=O` -0.477

State its growth for this compound: `CCCc1cc2c(cc1CN(Cc1cc3c(cc1CCC)OCO3)C(=N)OCC)OCO2` 77.9

State its growth for this compound: `CC[C@H](Nc1nc(C)nc(N)c1C#N)c1nc2cccc(NCc3ccc(C(=O)NO)cc3)c2c(=O)n1-c1ccccc1` 5.36

State its growth for this compound: `CNC(=O)c1cc(Oc2ccc(NC(=O)c3nc(S(C)(=O)=O)sc3-c3ccc(F)cc3)cc2)ccn1` 91.7

Taken from PubChem BioAssay (NCI).
